Each record here notes measured CC50 at 72 h.
# PROTOCOL DESCRIPTION: Cytotoxicity against human THP1 cells after 72 hrs by MTT assay
# Assay type: cell-based
# ASSAY CONDITIONS: THP-1 cells
Note: state the figure and append the unit.

Input line: Identify measured CC50 at 72 h corresponding to "O=c1c(O)c(-c2cccc(O)c2)oc2ccc(O)cc12"
Output line: 53 µM

Consider now this further molecule.
Input line: # return recorded CC50 at 72 h for input "O=c1c(O)c(-c2cccc(O)c2)oc2cc(O)ccc12"
Output line: 80 µM

###

# PROTOCOL DESCRIPTION: Cytotoxicity against human THP1 cells compound treated through encapsulation in PLGA nanoparticles after 72 hrs by MTT assay
# Format: cell-based
# ASSAY CONDITIONS: THP-1 cells, read-out: NOAEL
READOUT TYPE: MNTC at 72 h

Input line: Entry "O=c1c(O)c(-c2cccc(O)c2)oc2ccc(O)cc12" needs its MNTC at 72 h filled in; supply it.
Output line: > 100 µM

###

Item-by-item account of MNTC at 72 h
# PROTOCOL DESCRIPTION: Cytotoxicity against human THP1 cells after 72 hrs by MTT assay
# Assay type: cell-based
# ASSAY CONDITIONS: THP-1 cells, read-out: NOAEL

Please review the following examples before continuing.
Input line: Please give measured MNTC at 72 h of the following entry: "O=c1c(O)c(-c2ccc(O)cc2)oc2cc(O)ccc12"
Output line: 20 µM

Input line: Consider the compound "O=c1c(O)c(-c2cc(O)c(O)c(O)c2)oc2cc(O)ccc12" and give its recorded MNTC at 72 h.
Output line: 100 µM

Input line: Using known records, supply MNTC at 72 h for "COc1ccc2oc(-c3ccc(OC)c(OC)c3)c(O)c(=O)c2c1"
Output line: 10 µM

Input line: State its MNTC at 72 h for this compound: "COc1ccc(-c2oc3ccc(OC)cc3c(=O)c2O)cc1"
Output line: 20 µM

Input line: Using known records, supply MNTC at 72 h for "O=c1c(O)c(-c2ccc(O)c(O)c2)oc2ccc(O)cc12"
Output line: 10 µM

---
Input line: Dear colleague, please send me the reported MNTC at 72 h for "COc1cccc(-c2oc3cc(OC)ccc3c(=O)c2O)c1" when you can.
Output line: 10 µM

Input line: Give recorded MNTC at 72 h. "COc1cccc(-c2oc3ccccc3c(=O)c2O)c1"
Output line: 10 µM

Input line: Give the measured MNTC at 72 h for "O=c1c(O)c(-c2ccc(O)cc2)oc2ccc(O)cc12"
Output line: 20 µM

Input line: Hello, please tell me recorded MNTC at 72 h for this one: "COc1ccc2c(=O)c(O)c(-c3cc(OC)c(OC)c(OC)c3)oc2c1"
Output line: 20 µM

Input line: Name the recorded MNTC at 72 h of the item "O=c1c(O)c(-c2cccc(O)c2)oc2ccccc12" in your answer.
Output line: 20 µM

Input line: Give me measured MNTC at 72 h, please, for this compound: "N=C(N)c1ccc(OCCCCCOc2ccc(C(=N)N)cc2)cc1"
Output line: 10 µM

###

# Tested on: Trypanosoma brucei
# PROTOCOL DESCRIPTION: Inhibition of Trypanosoma brucei PTR1 at 50 uM using H2B as substrate incubated for 10 mins followed by addition of NADPH measured for 10 to 50 mins
The source made the active and inactive calls. The calls are words filed in the database; no cut-off is given here.
READOUT TYPE: inhibition

Input line: Dear colleague, please send me the reported inhibition for "COc1cccc(-c2oc3ccc(OC)cc3c(=O)c2O)c1" when you can.
Output line: 4%

Input line: Dear colleague, please send me the reported inhibition for "O=c1c(O)c(-c2cccc(O)c2)oc2cc(O)ccc12" when you can.
Output line: 47%

Input line: Consider the molecule O=c1c(O)c(-c2cc(O)c(O)c(O)c2)oc2cc(O)ccc12 [ROBINETIN] and give its recorded inhibition.
Output line: 85%

Input line: Identify the reported inhibition for the following entry. "COc1ccc2c(=O)c(O)c(-c3cc(OC)c(OC)c(OC)c3)oc2c1"
Output line: inactive

Input line: Specify reported inhibition for the molecule shown: "O=c1c(O)c(-c2cccc(O)c2)oc2ccc(O)cc12"
Output line: 96%

Attention now shifts to the item below.
Input line: Quick one: give measured inhibition for "O=c1c(O)c(-c2cccc(O)c2)oc2ccccc12"
Output line: 35%

###

# PROTOCOL DESCRIPTION: Cytotoxicity against human THP1 cells compound treated with cyclodextrins after 72 hrs by MTT assay
# Type: cell-based
# ASSAY CONDITIONS: THP-1 cells, read-out: NOAEL
READOUT TYPE: MNTC at 72 h

Input line: Consider the compound "O=c1c(O)c(-c2cccc(O)c2)oc2ccc(O)cc12" and give its recorded MNTC at 72 h.
Output line: > 100 µM

###

# System: Leishmania mexicana
# PROTOCOL DESCRIPTION: Inhibition of Leishmania mexicana PTR1 at 50 uM using H2B as substrate incubated for 10 mins followed by addition of NADPH measured for 10 to 50 mins
Calls of active or inactive are those of the source. The rule behind the calls is not given here.
READOUT TYPE: inhibition

Input line: GET inhibition | system: Leishmania mexicana | item: "O=c1c(O)c(-c2cccc(O)c2)oc2ccccc12"
Output line: 35%

Input line: # return inhibition of "COc1cccc(-c2oc3ccc(OC)cc3c(=O)c2O)c1" (system: Leishmania mexicana)
Output line: inactive

Input line: Report inhibition on Leishmania mexicana for this entry: "O=c1c(O)c(-c2cccc(O)c2)oc2ccc(O)cc12"
Output line: 86%

Input line: Look up and report inhibition, with Leishmania mexicana as system, for "COc1cccc(-c2oc3ccccc3c(=O)c2O)c1"
Output line: inactive

###

# PROTOCOL DESCRIPTION: Half life BALB/c mouse blood at 1 mg/kg, iv administered as single dose by HPLC analysis
# Type: ADME, organism-based
READOUT TYPE: half-life (min)
Express the result in min but write the number alone.

Input line: Given "O=c1c(O)c(-c2cccc(O)c2)oc2ccc(O)cc12" , respond with its half-life.
Output line: 7.6

###

# System: Trypanosoma brucei
# PROTOCOL DESCRIPTION: Inhibition of Trypanosoma brucei DHFR at 50 uM using folic aid as substrate by spectrophotometric analysis
READOUT TYPE: inhibition

# example entries with known answers
Input line: Give a short answer stating reported inhibition for "O=c1c(O)c(-c2cc(O)c(O)c(O)c2)oc2cc(O)ccc12" .
Output line: < 25%

Input line: Return value of inhibition for input "O=c1c(O)c(-c2ccc(O)c(O)c2)oc2cc(O)ccc12" , no commentary.
Output line: < 25%

Input line: Specify reported inhibition for the compound shown: "O=c1c(O)c(-c2cccc(O)c2)oc2ccc(O)cc12"
Output line: 42 to 43%

Input line: Answer with the recorded inhibition of "O=c1c(O)c(-c2cccc(O)c2)oc2ccccc12" only.
Output line: 42 to 43%

Input line: Entry "O=c1c(O)c(-c2ccc(O)c(O)c2)oc2ccc(O)cc12" needs its inhibition filled in; supply it.
Output line: < 25%

Input line: Provide one value: measured inhibition of "O=c1c(O)c(-c2cccc(O)c2)oc2cc(O)ccc12"
Output line: < 25%

Input line: Hello, please tell me recorded inhibition for this one: "O=c1c(O)c(-c2ccc(O)cc2)oc2ccc(O)cc12"
Output line: < 25%

Okay, now this compound:
Input line: Identify the reported inhibition for the following entry. "O=c1c(O)c(-c2ccc(O)cc2)oc2cc(O)ccc12"
Output line: < 25%

###

# TESTED ON: Cytochrome P450 2C19 (Homo sapiens, UniProt P33261)
# Sequence (P33261 whole entry): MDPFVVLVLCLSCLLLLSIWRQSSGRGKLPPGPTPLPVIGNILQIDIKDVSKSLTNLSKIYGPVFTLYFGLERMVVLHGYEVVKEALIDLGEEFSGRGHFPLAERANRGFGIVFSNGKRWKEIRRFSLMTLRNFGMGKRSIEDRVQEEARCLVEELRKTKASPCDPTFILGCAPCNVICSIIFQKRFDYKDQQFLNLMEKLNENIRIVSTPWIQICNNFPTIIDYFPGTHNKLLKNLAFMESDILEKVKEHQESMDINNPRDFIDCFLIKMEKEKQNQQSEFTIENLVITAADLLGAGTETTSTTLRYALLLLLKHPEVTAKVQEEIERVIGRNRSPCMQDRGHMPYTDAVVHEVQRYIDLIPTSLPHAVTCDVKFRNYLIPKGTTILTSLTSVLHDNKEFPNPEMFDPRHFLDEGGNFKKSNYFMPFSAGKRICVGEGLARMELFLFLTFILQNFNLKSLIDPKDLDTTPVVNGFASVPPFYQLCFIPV
READOUT TYPE: IC50

Input line: Enter IC50 (test system Cytochrome P450 2C19 (Homo sapiens, UniProt P33261)) for "O=c1c(O)c(-c2cccc(O)c2)oc2ccc(O)cc12"
Output line: > 10 µM

###

# TESTED ON: CYP1A2 (Homo sapiens, UniProt P05177)
# Sequence (P05177 whole entry): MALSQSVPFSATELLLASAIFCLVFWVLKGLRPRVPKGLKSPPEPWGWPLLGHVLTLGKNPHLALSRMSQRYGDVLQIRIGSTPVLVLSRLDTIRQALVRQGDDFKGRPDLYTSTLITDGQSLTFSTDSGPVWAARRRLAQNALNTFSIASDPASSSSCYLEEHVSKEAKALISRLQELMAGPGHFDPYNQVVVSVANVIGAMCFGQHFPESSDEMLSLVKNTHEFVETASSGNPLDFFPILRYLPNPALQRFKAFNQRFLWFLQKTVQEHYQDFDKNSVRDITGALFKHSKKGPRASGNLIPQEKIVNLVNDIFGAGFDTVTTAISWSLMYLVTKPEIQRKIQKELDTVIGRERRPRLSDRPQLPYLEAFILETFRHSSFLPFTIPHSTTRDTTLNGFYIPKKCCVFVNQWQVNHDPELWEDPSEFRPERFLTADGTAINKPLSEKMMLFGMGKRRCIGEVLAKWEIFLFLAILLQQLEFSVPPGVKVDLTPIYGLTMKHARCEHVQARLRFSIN
# PROTOCOL DESCRIPTION: Inhibition of human microsomal CYP1A2 expressed in baculovirus infected BTI-TN-5B1-4 cells at 10 uM incubated for 30 mins by luciferase assay
# Type: ADME
READOUT TYPE: inhibition at 0.5 h, 10 µM (%)
Record the value in %, omitting the unit from your answer.

Input line: Return the recorded inhibition at 0.5 h, 10 µM value; entry: "COc1ccc(-c2oc3ccc(OC)cc3c(=O)c2O)cc1"
Output line: 72

###

Reported selectivity ratio values for the following compounds.
# PROTOCOL DESCRIPTION: in vitro
# ASSAY CONDITIONS: human, THP-1 cells
# Description: Selectivity index, ratio of CC50 for human THP1 cells to EC50 for Trypanosoma brucei brucei Lister 427 bloodstream forms

Input line: Fill in selectivity ratio for record "COc1ccc2oc(-c3ccc(OC)c(OC)c3)c(O)c(=O)c2c1"
Output line: 5

Input line: Fill in selectivity ratio for record "O=c1c(O)c(-c2cccc(O)c2)oc2cc(O)ccc12"
Output line: 6

Input line: Output measured selectivity ratio for this item: "O=c1c(O)c(-c2ccc(O)c(O)c2)oc2ccc(O)cc12"
Output line: 6

Input line: Read off the recorded selectivity ratio for "O=c1c(O)c(-c2cccc(O)c2)oc2ccc(O)cc12"
Output line: 7

The origin of these recorded values is ChEMBL document CHEMBL4431321.
